measurement.kind: melting point

Observe how each entry below is paired with its result.
| compound | melting point |
| --- | --- |
| C[Si](C)(C)CCc1cn(-c2c(Cl)cc(C(F)(F)F)cc2Cl)nc1C#N | 128 to 129 °C |
| NC(=O)c1c(-c2ccc(F)cc2)cc2c3c1ccn3C(=O)CNC2 | 287 to 289 °C |
| Oc1cccc2c(CCc3ccccc3)ccnc12 | 102 to 103 °C |
| Cc1ccc2c(c1)c(Cl)c(C#N)c(=O)n2Cc1ccc(F)cc1 | 206 °C |
| Cc1c(C2=C(c3cn(C)c4ccccc34)C(=O)NC2=O)c2ccccc2n1C | > 290 °C |
| Cc1cc(N2CCc3ncccc3C2)nc(N2CCCC2)c1NC(=O)Cc1cc(F)cc(F)c1 | 203 to 206 °C |

// query Tell us which melting point value is on record for O=c1n(-c2ccc(C(F)(F)F)cc2)c(=O)n2n1CC(c1ccccc1)C2c1ccc(Cl)cc1 (stereo unspecified)
// result 148 to 150 °C

// query Tell us which melting point value is on record for COC(=O)c1cnn(O)c1
// result 175 °C

// query Tell us which melting point value is on record for O=C(NC1CCN(C(=O)CCCC2(C(=O)NCC(F)(F)F)c3ccccc3-c3ccccc32)CC1)c1ccccc1Oc1ccccc1
// result 96 to 98 °C

// query Tell us which melting point value is on record for O=C(OCCN1CCN(c2cccc(C(F)(F)F)c2)CC1)c1cc(F)ccc1Nc1ccnc2cc(Cl)ccc12
// result 113 °C

// query Tell us which melting point value is on record for Nc1ccn2nc(-c3cccnc3)nc2c1
// result 228 to 233 °C

// query Tell us which melting point value is on record for COCCNC(=O)c1cccc(-c2cccc3cc(Cc4cccc(C(F)(F)F)c4)sc23)c1F
// result 94 to 95 °C

// query Tell us which melting point value is on record for CS(=O)(=O)c1ccc(-c2cnn(-c3ccccc3[N+](=O)[O-])c(=O)c2-c2ccc(F)cc2)cc1
// result 236 to 239 °C

// query Tell us which melting point value is on record for COc1cccc2c1nc(-c1c(F)cccc1F)n2CC=C(C)C
// result 101 to 103 °C

// query Tell us which melting point value is on record for COc1ccc(OC)c(Sc2nc3c(N)ncnc3n2CCC=C(C)C)c1
// result 148 to 150 °C

// query Tell us which melting point value is on record for CCn1cc(Cl)nc(S(=O)(=O)CC(=O)Nc2ccccc2)c1=O
// result 178 to 180 °C

// query Tell us which melting point value is on record for N#Cc1cc(Cc2ccccc2)cc(-c2cccc([N+](=O)[O-])c2)c1O
// result 148 to 149 °C

// query Tell us which melting point value is on record for ClCc1ccc(Cl)nc1Cl
// result 115 to 130 °C
